FYI, the data here is from PubChem BioAssay (NCATS).

- System: CP268
- testMethodNotes: qHTS profiling for inhibitors of Plasmodium falciparum proliferation (AID 504749);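 note: 0% = DMSO vehicle and full inhibition = artemisinin control; nearly all actives have a fitted effect of over 60% in size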
- measurementConditions: P. falciparum in erythrocytes, SYBR Green DNA, 72 h; series mostly up to 28.7 µM
Inconclusive results are not listed. Calls of active or inactive are those of the source. Calls come from the whole dose curve; as a rule, active = well fitted inhibition curve with a large enough effect; inconclusive = small, poorly fitted or top-dose-only effect; inactive = flat fitted curve, though single readings scatter.
measure: outcome

C[C@]12CC[C@H]3c4ccc(O)cc4CC[C@@H]3[C@H]1CC[C@@H]2OP(=O)(O)O : inactive
CC1(C)[C@@H]2CC[C@]1(C)[C@@H](OC(=O)CSC#N)C2 : inactive
NS(=O)(=O)c1cc2c(cc1Cl)N[C@H](Cc1ccccc1)NS2(=O)=O : inactive

----------
Reported max response values for a set of molecules
- system: Peroxisome proliferator-activated receptor alpha (Homo sapiens) (UniProt Q07869)
- Sequence (Q07869 whole entry, looked up): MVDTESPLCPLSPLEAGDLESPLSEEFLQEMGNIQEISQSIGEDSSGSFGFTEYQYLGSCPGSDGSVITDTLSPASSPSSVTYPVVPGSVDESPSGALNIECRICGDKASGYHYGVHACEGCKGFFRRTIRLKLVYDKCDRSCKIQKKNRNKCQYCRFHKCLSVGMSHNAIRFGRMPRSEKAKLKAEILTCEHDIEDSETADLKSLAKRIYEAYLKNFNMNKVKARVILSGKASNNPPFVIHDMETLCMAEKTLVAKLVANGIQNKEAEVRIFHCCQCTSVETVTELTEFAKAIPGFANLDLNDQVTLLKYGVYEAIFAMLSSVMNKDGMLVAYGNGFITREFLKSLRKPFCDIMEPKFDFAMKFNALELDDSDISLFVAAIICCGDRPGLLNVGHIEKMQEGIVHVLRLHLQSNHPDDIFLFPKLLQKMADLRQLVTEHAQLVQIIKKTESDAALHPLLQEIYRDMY
- testMethodNotes: qHTS assay for small molecule agonists of the peroxisome proliferator-activated receptor alpha (PPARalpha) signaling pathway (AID 651778); note: % of control where 0% means no effect
- measurementConditions: PathHunter PPARalpha complementation, chemiluminescence, 6 h; hits give high values
Provide the reading as a plain figure in %.

Below: 3 molecules and their reported max response.
S=C(NC1CCCCC1)NC1CCCCC1 : 1.4
COc1ccc(C(=O)Nc2ccccc2)cc1[N+](=O)[O-] : -0.106
CN(C)c1ccc(C(=N)c2ccc(N(C)C)cc2)cc1 : -0.198

The record that follows has no max response shown yet.
Recorded max response for CC(=O)OC(C(=O)c1ccccc1)c1ccccc1 (stereo unspecified) , please?
-5.41

----------
Reported Potency values for a set of compounds
- system: Glucocorticoid receptor (Homo sapiens) (UniProt P04150)
- Sequence (P04150 whole entry, looked up): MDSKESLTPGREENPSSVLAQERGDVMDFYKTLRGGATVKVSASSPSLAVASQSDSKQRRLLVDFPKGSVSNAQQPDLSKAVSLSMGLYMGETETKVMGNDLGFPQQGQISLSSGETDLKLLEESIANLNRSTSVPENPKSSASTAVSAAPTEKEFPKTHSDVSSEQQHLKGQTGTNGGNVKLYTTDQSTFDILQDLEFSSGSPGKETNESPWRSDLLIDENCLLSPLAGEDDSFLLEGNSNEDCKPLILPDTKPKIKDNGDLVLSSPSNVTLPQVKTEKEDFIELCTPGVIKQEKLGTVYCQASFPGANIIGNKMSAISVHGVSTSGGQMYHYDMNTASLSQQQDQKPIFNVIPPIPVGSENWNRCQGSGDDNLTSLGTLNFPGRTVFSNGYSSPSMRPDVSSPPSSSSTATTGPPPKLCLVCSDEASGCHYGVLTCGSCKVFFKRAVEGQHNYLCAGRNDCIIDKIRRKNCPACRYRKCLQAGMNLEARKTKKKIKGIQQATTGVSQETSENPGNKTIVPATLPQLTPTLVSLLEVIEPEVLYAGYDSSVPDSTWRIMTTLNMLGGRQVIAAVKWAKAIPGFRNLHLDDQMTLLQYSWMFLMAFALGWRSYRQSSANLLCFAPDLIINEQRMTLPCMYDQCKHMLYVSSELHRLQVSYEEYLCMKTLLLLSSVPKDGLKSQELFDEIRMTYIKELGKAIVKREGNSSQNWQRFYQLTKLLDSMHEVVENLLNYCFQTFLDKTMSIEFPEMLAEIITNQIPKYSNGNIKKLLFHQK
- testMethodNotes: GR-GFP Redistribution (AID 450); note: potency is the fitted concentration of half-maximal effect
- measurementConditions: U2OS GR-GFP nuclear translocation, laser cytometry, 2 h
The source made the active and inactive calls.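 How the source made its calls: active means compounds whose dose series gives a full or clear partial fitted curve of increased nuclear translocation; inconclusive means weak partial curve or effect only at the top dose; inactive means no dose-dependent translocation response.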

Nc1n[nH]c2ccccc12 : > 46 µM (inactive)
COc1ccc(Oc2ncc3nc(-c4ccc(Cl)cc4)c(=O)n(CCC#N)c3n2)cc1 : > 46 µM (inactive)
CCNc1ncc2nc(-c3ccccc3)c(=O)n(C3CC3)c2n1 : > 9.22 µM (inactive)

Recorded Potency for "Oc1ccccc1C(Sc1nc2ccccc2s1)Sc1nc2ccccc2s1" , please?
> 46 µM (inactive)

Quick one: "c1ccc(-c2cnc(-c3ccc(-c4ncc(-c5ccccc5)o4)cc3)o2)cc1"
> 46 µM (inactive)

Quick one: "c1ccc([P+](CC[P+](c2ccccc2)(c2ccccc2)c2ccccc2)(c2ccccc2)c2ccccc2)cc1"
> 46 µM (inactive)

Quick one: "O=c1[nH]c(SCc2ccccc2[N+](=O)[O-])nc2nc[nH]c12"
> 46 µM (inactive)

Quick one: "N=C1C=CC(=C(c2ccc(N)cc2)c2ccc(N)cc2)C=C1"
> 46 µM (inactive)

Quick one: "NC(N)=N/N=C\c1ccc(O)c(C(=O)O)c1"
> 46 µM (inactive)

Quick one: "O=C(O)C(Cc1cccs1)C(=O)O"
> 46 µM (inactive)

Quick one: "O=C(Nc1ccc(-c2cn3ccccc3n2)cc1)c1cc(Br)ccc1O"
> 46 µM (inactive)

Quick one: "OCCN(CCO)c1ncnc2nc[nH]c12"
> 46 µM (inactive)

Quick one: "O[C@@H](COc1ccc(Cl)cc1Cl)CN1CCCC1"
> 46 µM (inactive)

----------
- testMethodNotes: AP1 Signaling Pathway (AID 357);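 note: ME-180 reporter cells stimulated with EGF at its EC50 level; % is set by controls: 0 for no effect and ±100 for the full control effect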
- measurementConditions: ME-180 (cervical carcinoma) AP-1-bla reporter, EGF-induced, beta-lactamase ratio, 5 h; at 7.69 µM (top of the series) unless noted
- Description: NCGC Assay Overview: Activator protein-1 (AP-1), a transcription factor, plays an important role in tumor genesis by regulating genes involved in cell proliferation, differentiation, apoptosis, and angiogenesis. AP-1 activity is induced by a complex network of signaling pathways that involves extracellular signals, such as growth factors. […] Library compounds were measured for their ability to modulate positively or negatively the action of EC50 EGF on reporter gene activity. […]
Inconclusive results are not listed. Calls of active or inactive are those of the source. Calls follow the shape of the dose curve; as a rule, active = well fitted curve in either direction with a large enough effect (not every such curve was filed as active); inconclusive = small, poorly fitted or top-dose-only effect, or another doubt; inactive = flat fitted curve, though single readings scatter.
Reported activity change, negative = inhibition values for a set of molecules

Below: 2 molecules and their reported activity change, negative = inhibition.
C[C@@H]1O[C@@H](n2cc(F)c(=O)[nH]c2=O)[C@H](O)[C@@H]1O : -3.92% [at 38 µM] (inactive)
O=CN1CCN(C[C@H](O)CN2CCCCC2)CC1 : 9% (inactive)

Recorded activity change, negative = inhibition for "O=C(O)[C@H](Cc1ccccc1)N1C(=O)c2ccccc2C1=O" , please?
-3.82% (inactive)

Quick one: O=C(O)NCc1ccccc1 (tested in a mixture with another compound)
4.23% (inactive)

Quick one: "S=C1N[C@H](c2ccccc2)N[C@H](c2ccccc2)S1"
-0.71% (inactive)

Quick one: "N[C@@]1(C(=O)O)CCC[C@@H]1C(=O)O"
6.92% (inactive)

Quick one: "N#CCCn1c(=O)c(-c2ccccc2)nc2cnc(OCc3ccccc3)nc21"
-17.7% (inactive)

Quick one: "CC(=O)OCC(=O)[C@@]1(O)CC[C@@H]2[C@@H]3CCC4=CC(=O)CC[C@@]4(C)[C@H]3C(=O)C[C@]21C"
4.78% [at 38 µM] (inactive)

Quick one: O=[N+]([O-])c1ccc(CS(=O)Cc2ccccc2)cc1 (stereo not given)
-8.79% (inactive)

Quick one: "S=c1[nH]nc(SCc2ccccc2Cl)c2[nH]cnc12"
-6.3% (inactive)
